assayed_target: Her2 Exon 20 INSYVMA Ba/F3 (Homo sapiens, UniProt P04626, DUP772-775, cells depend on it)
Sequence (P04626 with tags, fused parts or gaps DUP772-775): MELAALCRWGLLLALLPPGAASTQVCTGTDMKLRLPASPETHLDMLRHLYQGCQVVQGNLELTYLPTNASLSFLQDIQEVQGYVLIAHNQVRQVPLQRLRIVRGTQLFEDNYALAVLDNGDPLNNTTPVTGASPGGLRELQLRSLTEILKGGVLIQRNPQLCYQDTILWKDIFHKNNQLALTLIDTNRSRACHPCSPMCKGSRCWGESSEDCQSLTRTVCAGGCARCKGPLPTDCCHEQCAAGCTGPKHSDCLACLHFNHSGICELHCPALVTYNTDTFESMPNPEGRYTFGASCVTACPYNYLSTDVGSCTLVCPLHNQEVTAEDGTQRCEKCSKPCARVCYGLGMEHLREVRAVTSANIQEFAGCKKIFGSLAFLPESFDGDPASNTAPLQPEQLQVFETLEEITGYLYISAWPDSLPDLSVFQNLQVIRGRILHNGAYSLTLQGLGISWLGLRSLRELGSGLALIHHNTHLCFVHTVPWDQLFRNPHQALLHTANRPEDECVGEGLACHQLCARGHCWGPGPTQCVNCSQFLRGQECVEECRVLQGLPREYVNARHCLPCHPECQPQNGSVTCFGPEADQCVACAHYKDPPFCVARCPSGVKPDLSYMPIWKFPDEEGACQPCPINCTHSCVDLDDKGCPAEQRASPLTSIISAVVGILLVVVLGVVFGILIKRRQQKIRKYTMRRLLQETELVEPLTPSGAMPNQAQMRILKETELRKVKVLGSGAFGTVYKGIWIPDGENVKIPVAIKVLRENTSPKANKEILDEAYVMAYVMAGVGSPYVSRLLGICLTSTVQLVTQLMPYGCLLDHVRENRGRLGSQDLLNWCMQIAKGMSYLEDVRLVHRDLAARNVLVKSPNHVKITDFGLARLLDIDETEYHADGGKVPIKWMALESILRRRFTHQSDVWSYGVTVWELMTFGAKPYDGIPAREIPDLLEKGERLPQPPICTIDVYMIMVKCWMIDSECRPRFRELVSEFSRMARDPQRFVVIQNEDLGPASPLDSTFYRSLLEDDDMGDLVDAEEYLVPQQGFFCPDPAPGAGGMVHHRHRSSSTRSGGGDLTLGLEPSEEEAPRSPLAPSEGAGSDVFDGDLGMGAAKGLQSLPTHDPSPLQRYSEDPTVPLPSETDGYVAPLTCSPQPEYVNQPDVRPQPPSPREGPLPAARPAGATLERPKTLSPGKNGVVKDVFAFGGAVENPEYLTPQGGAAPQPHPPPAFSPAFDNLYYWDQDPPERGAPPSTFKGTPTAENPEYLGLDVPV
experimental_protocol: Her2 Exon 20 INSYVMA Ba/F3 CellTiter-Glo
Type: cell-based
measurement_conditions: CellTiter-Glo, 72 h, read-out: Her2 Exon 20 INSYVMA Ba/F3 CTG IC50
endpoint_label: GI50

>  <molecule>
C=CC(=O)Nc1cc(-c2c(-c3ccc(N4CCN(C)CC4)cc3)[nH]c3ncc(C(=O)NCc4ccc(F)cc4F)cc23)ccc1C

>  <GI50>
500 to 1000 nM

$$$$

Please tell me: GI50 of "C=CC(=O)Nc1cc(-c2c(-c3ccc(CN(C)C)cc3)[nH]c3nccc(Cl)c23)ccc1C" , system Her2 Exon 20 INSYVMA Ba/F3 (Homo sapiens, UniProt P04626, DUP772-775, cells depend on it)?
≤ 100 nM

Please tell me: GI50 of "C=CC(=O)N1CCc2ccc(-c3c(-c4ccnc(N5CCN(C)CC5)c4)[nH]c4nccc(OCC)c34)cc21" , system Her2 Exon 20 INSYVMA Ba/F3 (Homo sapiens, UniProt P04626, DUP772-775, cells depend on it)?
100 to 500 nM

* * *

compounds and their reported pIC50
assayed_target: EGFR wt (Homo sapiens)
Sequence (P00533 25-1210): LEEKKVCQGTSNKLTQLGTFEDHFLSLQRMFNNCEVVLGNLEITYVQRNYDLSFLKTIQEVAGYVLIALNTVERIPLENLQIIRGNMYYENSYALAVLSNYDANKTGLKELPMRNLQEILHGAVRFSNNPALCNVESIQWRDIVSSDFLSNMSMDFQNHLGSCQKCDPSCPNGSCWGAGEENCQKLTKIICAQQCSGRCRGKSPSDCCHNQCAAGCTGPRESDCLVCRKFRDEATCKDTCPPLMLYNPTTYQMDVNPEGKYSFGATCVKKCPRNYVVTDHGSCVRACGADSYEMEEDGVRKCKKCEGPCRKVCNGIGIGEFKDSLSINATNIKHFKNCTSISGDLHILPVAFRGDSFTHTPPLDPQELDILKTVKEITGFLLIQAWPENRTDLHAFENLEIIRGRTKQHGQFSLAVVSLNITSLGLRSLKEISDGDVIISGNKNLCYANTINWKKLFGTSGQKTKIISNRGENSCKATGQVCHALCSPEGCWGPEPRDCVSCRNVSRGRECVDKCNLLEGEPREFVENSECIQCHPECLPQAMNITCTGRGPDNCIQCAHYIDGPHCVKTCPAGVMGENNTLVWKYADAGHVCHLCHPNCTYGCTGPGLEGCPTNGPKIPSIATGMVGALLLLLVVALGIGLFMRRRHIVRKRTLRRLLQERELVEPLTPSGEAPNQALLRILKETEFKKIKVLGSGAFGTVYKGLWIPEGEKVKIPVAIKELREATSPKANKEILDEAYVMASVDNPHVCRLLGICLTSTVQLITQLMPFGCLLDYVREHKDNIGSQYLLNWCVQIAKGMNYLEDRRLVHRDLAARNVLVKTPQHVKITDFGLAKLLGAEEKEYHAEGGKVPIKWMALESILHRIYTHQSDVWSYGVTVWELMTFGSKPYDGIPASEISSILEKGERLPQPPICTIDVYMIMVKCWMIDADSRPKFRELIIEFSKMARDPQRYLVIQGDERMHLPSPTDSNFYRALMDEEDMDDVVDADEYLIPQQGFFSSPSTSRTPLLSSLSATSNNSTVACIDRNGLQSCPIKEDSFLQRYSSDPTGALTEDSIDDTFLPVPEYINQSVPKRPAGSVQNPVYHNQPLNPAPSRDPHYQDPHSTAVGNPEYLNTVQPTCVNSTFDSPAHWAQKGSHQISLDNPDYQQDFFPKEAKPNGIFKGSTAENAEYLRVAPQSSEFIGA
pIC50: −log10 of the molar value.

Example cases with answers are listed next.
>  <compound>
C=CC(=O)Nc1cc(-c2c(-c3ccc(C4CCNCC4)cc3)[nH]c3nccc(Cl)c23)ccc1C

>  <assayed_target>
EGFR wt (Homo sapiens)

>  <pIC50>
≥ 7.00

$$$$
>  <compound>
C=CC(=O)Nc1cc(-c2c(-c3ccc(N4CCNCC4)cc3)[nH]c3nccc(Cl)c23)ccc1C [Example 96, 2,2,2-trifluoroacetate]

>  <assayed_target>
EGFR wt (Homo sapiens)

>  <pIC50>
≥ 7.00

$$$$

Please tell me: pIC50 of "C=CC(=O)N1CCc2ccc(-c3c(-c4cccc(OCCN5CCCC5)c4)[nH]c4nccc(Cl)c34)cc21" , system EGFR wt (Homo sapiens)?
≥ 7.00

Please tell me: pIC50 of C=CC(=O)Nc1cc(-c2c(-c3ccc(N4CCN(C)CC4)cc3)[nH]c3ncc(CC)cc23)ccc1C [Example 191, 2,2,2-trifluoroacetate] , system EGFR wt (Homo sapiens)?
≥ 7.00

Please tell me: pIC50 of "C=CC(=O)N1CCCc2ccc(-c3c(-c4ccc(N5CCN(C)CC5)nc4)[nH]c4nccc(Cl)c34)cc21" , system EGFR wt (Homo sapiens)?
≥ 7.00

Please tell me: pIC50 of C=CC(=O)Nc1cc(-c2c(-c3cccc(C(=O)N4CCN(C)CC4)c3)[nH]c3nccc(Cl)c23)ccc1C [Example 44, 2,2,2-trifluoroacetate] , system EGFR wt (Homo sapiens)?
6.30 to 7.00

Please tell me: pIC50 of "C=CC(=O)Nc1cc(-c2c(-c3ccnc(N4CCOCC4)c3)[nH]c3ncccc23)ccc1C" , system EGFR wt (Homo sapiens)?
6.30 to 7.00

Please tell me: pIC50 of "C=CC(=O)Nc1cc(-c2c(-c3ccc(N4CCN(C)CC4)cc3)[nH]c3ncc(C(=O)NCCc4ccc(F)cc4)cc23)ccc1C" , system EGFR wt (Homo sapiens)?
≥ 7.00

Please tell me: pIC50 of "C=CC(=O)Nc1cc(-c2c(-c3ccc(OCCN(C)C)cc3)[nH]c3ncc(C(=O)OC(C)C)cc23)cc(F)c1C" , system EGFR wt (Homo sapiens)?
≥ 7.00
